Target: Dickkopf-related protein 1 (Homo sapiens) (UniProt O94907)
Sequence (O94907 whole entry, looked up): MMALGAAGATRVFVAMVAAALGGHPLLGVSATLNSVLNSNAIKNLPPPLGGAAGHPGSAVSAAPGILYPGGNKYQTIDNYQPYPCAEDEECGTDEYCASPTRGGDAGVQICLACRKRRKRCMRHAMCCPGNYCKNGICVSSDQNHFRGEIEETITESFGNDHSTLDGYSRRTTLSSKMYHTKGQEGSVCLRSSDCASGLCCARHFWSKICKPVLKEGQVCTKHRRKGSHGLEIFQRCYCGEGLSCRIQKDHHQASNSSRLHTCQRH
Assay: DKK1 binders on small-molecule microarrays, primary screen, biochemical, small-molecule microarray, 635 nm fluorescence scan (AID 1106);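 further: score merges emission near 667 nm with signal to noise over three replicate slides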
Conditions: DKK1 binding, higher = more signal
composite z-score: recorded values

These solved cases illustrate the format of a correct answer.
>  <SMILES CODE>
COc1ccc(O[C@H]2C=C[C@@H](c3ccccc3)O[C@@H]2CON=C(C)CCN2CCc3nc(-c4ccccc4)c(-c4ccccc4)cc3C2)cc1

>  <MEASURED ATTRIBUTE>
composite z-score

>  <RESULT>
0.162

$$$$
>  <SMILES CODE>
CCCNC(=O)OC[C@H]1O[C@H](CCON=C(C)CCN2CCCc3nc(C)c(C)cc32)C=C[C@@H]1Oc1ccc(OC)cc1

>  <MEASURED ATTRIBUTE>
composite z-score

>  <RESULT>
0.687

$$$$
>  <SMILES CODE>
C[C@@H]1C=CCC(=O)OC[C@H]2O[C@@H](C=C[C@@H]2O)[C@H](C)C=CCC(=O)OC1

>  <MEASURED ATTRIBUTE>
composite z-score

>  <RESULT>
1.53

$$$$

Now, please, on to the next compound.
Entry C#CCCCON=C1[C@H]2CCn3c(=O)n(C)c(=O)n3[C@H]2[C@H](O)[C@@H]2O[C@H]12 ; composite z-score = 0.811

---

Assay: small-molecule microarray binders of probe aEGFR, primary screen, biochemical, biotinylated probe, 635/667 nm fluorescence (AID 1097);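 further: probe is a biotinylated anti-EGFR antibody binding compounds printed on slides; score combines fluorescence near 667 nm and signal to noise of each spot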
Conditions: higher = more signal
MEASURED ATTRIBUTE: composite z-score
Give only the figure.

Entry CCOC(=O)[C@H](Cc1ccccc1)NC(=O)CCC1CC(OC(=O)NCc2cccc3ccccc23)CC2(CCCC(COC(=O)NCc3cccc(C(F)(F)F)c3)O2)O1 (some centres not stated) ; composite z-score = -0.114

---

Molecular target: Fibroblast growth factor 10 (Homo sapiens)
Experiment: FGF10 binders on small-molecule microarrays, primary screen, biochemical, small-molecule microarray, 635 nm fluorescence (AID 1102)
Details: FGF10 binding, fluorescence 635 nm, higher = more signal
composite z-score: recorded values
Give only the figure.

These solved cases illustrate the format of a correct answer.
>  <MOLECULE>
COC(=O)CC=C[C@@H](C)[C@@H](C=NOC(C)CN1CCCc2nc(C)c(C)cc21)OC (stereo partly specified)

>  <composite z-score>
0.407

$$$$
>  <MOLECULE>
CCCCC#C[C@@H]1C=C[C@H](Oc2cc(OC)c(OC)c(OC)c2)[C@@H](COC(=O)OCC)O1

>  <composite z-score>
0.306

$$$$

Entry C[C@@H]1CC[C@H]2C(=O)O[C@@H](Cc3ccccc3)CN2[C@H]1c1ccc(Br)cc1 ; composite z-score = 0.383

Entry CO[C@H]1COC(=O)[C@H](C)NC(=O)CC=C[C@@H](C)[C@H](OC)COC(=O)[C@@H](OCc2ccccc2)C=C[C@@H]1C ; composite z-score = 0.0389

Entry COC(=O)CC=C[C@@H](C)[C@@H]1C=C[C@H](O)[C@@H](CO)O1 ; composite z-score = 0.666

Entry CCCNC(=O)OC[C@H]1O[C@H](CCON=C(C)C)C=C[C@@H]1Oc1ccc(OC)cc1 ; composite z-score = 0.325

Entry COc1cccc([C@H]2Oc3ccc(OC)cc3C(=NO[C@@H]3O[C@H](COC(C)=O)[C@@H](OC(C)=O)[C@H](OC(C)=O)[C@H]3OC(C)=O)[C@@H]2O)c1 ; composite z-score = 0.261

Entry CO[C@H]1COC(=O)[C@H](C)NC(=O)[C@@H](C)COC(=O)[C@H]2CCCN2C(=O)CC=C[C@H]1C ; composite z-score = 0.764

Entry CO[C@H]1COC(=O)[C@@H](C)COC(=O)[C@H](COCc2ccccc2)NC(=O)CC=C[C@H]1C ; composite z-score = 0.121

Entry COC(=O)[C@@H]1CC[C@H](C)[C@@H](c2ccc(C)cc2)N1C(=O)c1ccc(C=NO[C@@H](C)c2cn([C@H](CO)Cc3ccccc3)nn2)cc1 ; composite z-score = 1.09

---

Test: small-molecule microarray binders of probe aEGFR, primary screen, biochemical, biotinylated probe, 635/667 nm fluorescence (AID 1097);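 further: probe is a biotinylated anti-EGFR antibody binding compounds printed on slides; score combines fluorescence near 667 nm and signal to noise of each spot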
Conditions: higher = more signal
MEASURED ATTRIBUTE: composite z-score
Give only the figure.

These solved cases illustrate the format of a correct answer.
>  <COMPOUND>
COc1ccc(O[C@H]2C=C[C@@H](c3ccccc3)O[C@@H]2COC(=O)CCC(C)=NOC(C)CN2CCCc3nc(C)c(C)cc32)cc1 (stereo partly drawn)

>  <MEASURED ATTRIBUTE>
composite z-score

>  <NUMERIC RESULT>
-0.0106

$$$$
>  <COMPOUND>
Cn1c(=O)n2n(c1=O)[C@H]1[C@H](O)[C@@H]3O[C@@H]3C(=O)[C@H]1CC2

>  <MEASURED ATTRIBUTE>
composite z-score

>  <NUMERIC RESULT>
-0.0508

$$$$
>  <COMPOUND>
COC(=O)CC=C[C@@H](C)[C@@H](C=NOCC[C@@H]1C=C[C@H](OC(C)=O)[C@@H](COC(C)=O)O1)OC

>  <MEASURED ATTRIBUTE>
composite z-score

>  <NUMERIC RESULT>
0.0754

$$$$
>  <COMPOUND>
CC(=O)OC[C@H]1O[C@H](C#Cc2ccccc2)C=C[C@@H]1OC(C)=O

>  <MEASURED ATTRIBUTE>
composite z-score

>  <NUMERIC RESULT>
-0.0953

$$$$
>  <COMPOUND>
O=C1C[C@@H](O)[C@@H](O)[C@@H]2[C@@H]3C(=O)N(c4cccc(Oc5ccccc5)c4)C(=O)[C@@H]3CC[C@H]12

>  <MEASURED ATTRIBUTE>
composite z-score

>  <NUMERIC RESULT>
-0.145

$$$$

Entry CCc1cc2c(nc1CC)CCN(CCC(C)=NO[C@@H](C)c1cn([C@H](CO)Cc3ccccc3)nn1)C2 ; composite z-score = -0.0679

Entry CCCCC#C[C@@H]1C=C[C@H](OC(C)=O)[C@@H](COC(C)=O)O1 ; composite z-score = 0.0251

Entry CCOC(=O)[C@H](CC(C)C)NC(=O)CCC1CC(OC(=O)NCc2cccc3ccccc23)CC2(CCCC(COC(=O)NCc3ccncc3)O2)O1 (stereo partly drawn) ; composite z-score = 0.157

---

Target: Left-right determination factor 2 (Homo sapiens)
Assay: LEFTY2 binders on small-molecule microarrays, primary screen, biochemical, small-molecule microarray, 635 nm fluorescence scan (AID 1110)
Conditions: LEFTY2 binding, higher = more signal
MEASURED ATTRIBUTE: composite z-score
Give only the figure.

These solved cases illustrate the format of a correct answer.
>  <COMPOUND>
CCO[C@H](c1cc(OC)cc([N+](=O)[O-])c1OC)[C@H](C)C=CCC(=O)OC

>  <composite z-score>
0.46

$$$$
>  <COMPOUND>
CO[C@H]1COC(=O)[C@@H](C)COC(=O)[C@@H](OCc2ccccc2)C=C[C@@H]1C

>  <composite z-score>
0.281

$$$$
>  <COMPOUND>
CC(C)=NO[C@H](C)c1cn([C@H](CO)Cc2ccccc2)nn1

>  <composite z-score>
0.13

$$$$

Lab note: compound COC(=O)CC=C[C@@H](C)[C@@H](C=NOC(C)CN1CCCc2nc(C)c(C)cc21)OC (stereo partly specified) tested on Left-right determination factor 2 (Homo sapiens); recorded composite z-score was 0.517

Lab note: compound CCOC(=O)C1=NO[C@@]2(C=C(Br)C3(OCCCO3)[C@H]3O[C@H]32)C1 tested on Left-right determination factor 2 (Homo sapiens); recorded composite z-score was 1.13

Lab note: compound CCN1C(=O)[C@H]2[C@H]3[C@H](O)[C@H](O)CC(=NNC(=O)OCc4ccc(OC)cc4)[C@@H]3CC[C@H]2C1=O tested on Left-right determination factor 2 (Homo sapiens); recorded composite z-score was -0.0843

Lab note: compound CO[C@H]1COC(=O)[C@H](C)NC(=O)[C@@H](C)COC(=O)[C@H]2CCCN2C(=O)CC=C[C@H]1C tested on Left-right determination factor 2 (Homo sapiens); recorded composite z-score was 0.663

Lab note: compound COc1ccc(COC(=O)NN=C2C[C@@H](O)[C@@H](O)[C@@H]3[C@@H]4C(=O)N(c5cccc(Oc6ccccc6)c5)C(=O)[C@@H]4CC[C@@H]23)cc1 tested on Left-right determination factor 2 (Homo sapiens); recorded composite z-score was -0.0421

Lab note: compound CCCNC(=O)OC[C@H]1O[C@H](CCON=C(C)CCN2CCc3nc(CC)c(CC)cc3C2)C=C[C@@H]1Oc1ccc(OC)cc1 tested on Left-right determination factor 2 (Homo sapiens); recorded composite z-score was 0.223

Lab note: compound O=C1C=C[C@@H](O)[C@@H]2[C@@H]3C(=O)N(C[C@@H]4CCCO4)C(=O)[C@@H]3CC[C@@H]12 tested on Left-right determination factor 2 (Homo sapiens); recorded composite z-score was 0.449

Lab note: compound CO[C@H]1COC(=O)[C@@H](Cc2ccccc2)NC(=O)[C@@H](C)COC(=O)CCC[C@@H]1C tested on Left-right determination factor 2 (Homo sapiens); recorded composite z-score was 0.455

Lab note: compound CCOC(=O)[C@H](CC(C)C)NC(=O)CCC1CC(OC(=O)NCc2cccc3ccccc23)CC2(CCCC(COC(=O)NCCC(C)C)O2)O1 (stereo partly specified) tested on Left-right determination factor 2 (Homo sapiens); recorded composite z-score was 0.443

Lab note: compound CCOC(=O)[C@H](CC(C)C)NC(=O)CCC1CC(OC(=O)NCCc2ccc(F)cc2)CC2(CCCC(COC(=O)NCCc3ccccc3OC)O2)O1 (stereo partly specified) tested on Left-right determination factor 2 (Homo sapiens); recorded composite z-score was 0.61

Lab note: compound CC(C)CON=C1C[C@@H](O)[C@@H](O)[C@@H]2[C@@H]3C(=O)N(C4CCCCC4)C(=O)[C@@H]3CC[C@@H]12 tested on Left-right determination factor 2 (Homo sapiens); recorded composite z-score was 0.0528

Lab note: compound CCOC(=O)[C@H](CC(C)C)NC(=O)CCC1CC(OC(=O)NCc2cccc3ccccc23)CC2(CCCC(COC(=O)NCCCN3CCCC3=O)O2)O1 (stereo partly specified) tested on Left-right determination factor 2 (Homo sapiens); recorded composite z-score was 0.446

Lab note: compound Cc1cc2c(nc1C)CCCCN2CC(C)ON=C[C@@H](C)[C@H](OCc1ccccc1)C(C)C (stereo partly specified) tested on Left-right determination factor 2 (Homo sapiens); recorded composite z-score was -0.684

Cited source for all entries: PubChem BioAssay
